Source: patent US8030336B2

- TARGET: human JAK2 (Homo sapiens, UniProt O60674)
- Construct: The kinase domain of human JAK2 was amplified from U937mRNA; His tag (from the pFastBac HTc vector) (N); made in house; host or cells: baculovirus; Sf9 for virus, High Five insect cells for production
- Sequence (O60674 849-1124 limits assumed): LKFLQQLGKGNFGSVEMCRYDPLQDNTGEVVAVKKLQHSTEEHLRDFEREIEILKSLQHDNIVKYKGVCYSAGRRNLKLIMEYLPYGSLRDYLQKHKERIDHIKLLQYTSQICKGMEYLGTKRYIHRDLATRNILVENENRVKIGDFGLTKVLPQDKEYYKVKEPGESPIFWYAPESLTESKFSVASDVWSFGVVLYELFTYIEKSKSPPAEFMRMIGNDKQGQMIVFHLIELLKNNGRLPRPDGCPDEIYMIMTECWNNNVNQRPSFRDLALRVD
- METHOD NOTES: JAK2 kinase assay (ELISA or Alphascreen)
- Format: biochemical
- SETTINGS: read-out: Jak2 inhibition of enzyme activity
Below: a set of entries, each annotated with reported inhibition at 10 µM.

# annotated cases, reported inhibition at 10 µM shown
O=C(NCCc1ccccc1)c1cncc(-c2cccs2)c1	< 50%
COc1cc(CNC(=O)c2cncc(-c3cc(C)c(O)c(C)c3)c2)cc(OC)c1	< 50%
COc1cccc(-c2cncc(C(=O)NCCc3ccccc3)c2)c1	< 50%
COc1cccc(-c2cncc(C(=O)N[C@@H](C)c3cccc(OC)c3)c2)c1	< 50%
C[C@@H](NC(=O)c1cncc(-c2ccncc2)c1)c1ccccc1	< 50%
Cc1ccc(CNC(=O)c2cncc(-c3ccc(F)cc3)c2)cc1	< 50%
COc1cc(CNC(=O)c2cncc(-c3ccc4c(c3)OCO4)c2)cc(OC)c1	< 50%
COc1ccc(NC(=O)c2cncc(-c3cc(OC)c(OC)c(OC)c3Cl)c2)c(OC)c1	< 50%

Task: I'd like to know its inhibition at 10 µM. The molecule in question is `Cc1cc(-c2cncc(C(=O)Nc3ccccc3)c2)cc(C)c1O`
Result: < 50%

Task: // query: `COc1cc(-c2cncc(C(=O)Nc3ccccc3C)c2)ccc1O`
Result: < 50%

Task: // query: `O=C(NCCc1ccccc1)c1cncc(-c2ccc(O)cc2)c1`
Result: < 50%

Task: // query: `Cc1cc(-c2cncc(C(=O)N[C@@H](C)c3ccccc3)c2)cc(C)c1O`
Result: < 50%

Task: // query: `COc1cc(-c2cncc(C(=O)NC(C)C)c2)c(Cl)c(OC)c1OC`
Result: < 50%

Task: // query: CC(C)C(CO)NC(=O)c1cncc(-c2cccs2)c1 (stereo not shown)
Result: < 50%

Task: // query: `Cc1ccc(CNC(=O)c2cncc(-c3cc(C)c(O)c(C)c3)c2)cc1`
Result: < 50%

Task: // query: `COc1cc(-c2cncc(C(=O)NCc3ccc(C)cc3)c2)c(Cl)c(OC)c1OC`
Result: < 50%

Task: // query: `COc1cccc(-c2cncc(C(=O)NCc3ccc(C)cc3)c2)c1`
Result: < 50%

Task: // query: `COc1ccc(CNC(=O)c2cncc(-c3ccc4c(c3)OCO4)c2)cc1`
Result: < 50%

Task: // query: `C[C@@H](NC(=O)c1cncc(-c2cccnc2)c1)c1ccccc1`
Result: < 50%

Task: // query: `COc1cc(-c2cncc(C(=O)Nc3cc(C)ccc3C)c2)c(Cl)c(OC)c1OC`
Result: < 50%

Task: // query: `O=C(NCc1cccc(F)c1)c1cncc(-c2ccc3c(c2)OCO3)c1`
Result: < 50%

Task: // query: `O=C(NCc1cccc(F)c1)c1cncc(-c2cccs2)c1`
Result: < 50%

* * *

Below: a set of entries, each annotated with reported inhibition at 10 µM.
- TARGET: human JAK3 (Homo sapiens)
- Construct: The kinase domain of human JAK3 was amplified from U937mRNA; His tag (from the pFastBac HTb vector) (N); made in house; host or cells: baculovirus; Sf9 for virus, High Five insect cells for production
- Sequence (P52333 822-1111 limits assumed): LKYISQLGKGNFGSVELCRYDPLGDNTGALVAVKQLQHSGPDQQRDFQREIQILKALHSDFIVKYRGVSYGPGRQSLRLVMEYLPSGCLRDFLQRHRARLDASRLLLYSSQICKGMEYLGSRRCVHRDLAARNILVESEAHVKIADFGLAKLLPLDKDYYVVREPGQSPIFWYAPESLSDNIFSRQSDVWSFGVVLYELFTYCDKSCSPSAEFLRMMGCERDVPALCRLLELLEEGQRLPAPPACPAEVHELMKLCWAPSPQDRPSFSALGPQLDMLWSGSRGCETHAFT
- METHOD NOTES: JAK3 kinase assay (ELISA or Alphascreen)
- Type: biochemical
- SETTINGS: read-out: Jak3 inhibition of enzyme activity

CN(C)CCNC(=O)c1cncc(-c2ccc(F)cc2)c1	< 50%
COc1cc(CNC(=O)c2cncc(-c3ccc(O)cc3)c2)cc(OC)c1	< 50%
COc1cc(-c2cncc(C(=O)Nc3ccc(N4CCOCC4)cc3)c2)c(Cl)c(OC)c1OC	< 50%

Task: I'd like to know its inhibition at 10 µM. The compound in question is `COc1cc(NC(=O)c2cncc(-c3ccc(F)cc3)c2)cc(OC)c1OC`
Result: < 50%

Task: // query: `COc1cc(-c2cncc(C(=O)NC(C)C)c2)c(Cl)c(OC)c1OC`
Result: < 50%

* * *

- TARGET: Zap70 (Homo sapiens)
- Sequence (P43403 338-600 limits assumed, species assumed): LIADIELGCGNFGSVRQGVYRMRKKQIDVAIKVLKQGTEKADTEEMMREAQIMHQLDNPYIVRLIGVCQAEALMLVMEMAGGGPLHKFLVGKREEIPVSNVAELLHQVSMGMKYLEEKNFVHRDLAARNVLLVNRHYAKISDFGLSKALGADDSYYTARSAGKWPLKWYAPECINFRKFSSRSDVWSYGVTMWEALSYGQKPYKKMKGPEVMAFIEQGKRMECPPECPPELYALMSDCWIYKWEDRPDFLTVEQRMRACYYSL
- METHOD NOTES: Zap70 kinase assay (ELISA or Alphascreen)
- Type: biochemical
- SETTINGS: read-out: Zap70 inhibition of enzyme activity
OBSERVED PROPERTY: inhibition at 10 µM

Task: I'd like to know its inhibition at 10 µM. The compound in question is `O=C(NCc1ccncc1)c1cncc(-c2cccs2)c1`
Result: < 50%

* * *

- TARGET: UniProt:P08631
- METHOD NOTES: hck kinase assay (ELISA or Alphascreen)
- Type: biochemical
- SETTINGS: read-out: hck inhibition of enzyme activity
Below: a set of entries, each annotated with reported inhibition at 10 µM.

C[C@@H](NC(=O)c1cncc(-c2ccc(O)cc2)c1)c1ccccc1	< 50%

Task: # returns recorded inhibition at 10 µM (system: UniProt:P08631) for `C[C@H](NC(=O)c1cncc(-c2ccc3c(c2)OCO3)c1)c1ccccc1`
Result: < 50%

Task: // query: `COc1ccc(CNC(=O)c2cncc(-c3cccnc3)c2)cc1`
Result: < 50%

Task: // query: `Cc1ccc(F)cc1NC(=O)c1cncc(-c2cc(C)c(O)c(C)c2)c1`
Result: ≥ 50%

Task: // query: `O=C(NCc1ccc(Cl)c(Cl)c1)c1cncc(-c2cccs2)c1`
Result: < 50%

Task: // query: `COc1cc(-c2cncc(C(=O)NCc3ccncc3)c2)c(Cl)c(OC)c1OC`
Result: < 50%

* * *

- TARGET: hck (Homo sapiens, UniProt P08631)
- Sequence (P08631 262-515 limits assumed, species assumed): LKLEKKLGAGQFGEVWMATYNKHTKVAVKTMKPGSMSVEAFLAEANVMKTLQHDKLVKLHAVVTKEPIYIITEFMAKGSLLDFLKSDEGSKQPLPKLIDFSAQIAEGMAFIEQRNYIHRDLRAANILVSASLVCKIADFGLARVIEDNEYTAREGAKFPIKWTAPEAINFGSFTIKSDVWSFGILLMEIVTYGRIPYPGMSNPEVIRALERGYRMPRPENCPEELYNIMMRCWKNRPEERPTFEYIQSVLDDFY
- METHOD NOTES: hck kinase assay (ELISA or Alphascreen)
- Assay type: biochemical
- SETTINGS: read-out: hck inhibition of enzyme activity
Below: a set of entries, each annotated with reported inhibition at 10 µM.

# annotated cases, reported inhibition at 10 µM shown
COc1ccc(NC(=O)c2cncc(-c3cc(OC)c(OC)c(OC)c3)c2)c(OC)c1	< 50%
Cc1cc(-c2cncc(C(=O)NC(C)C)c2)cc(C)c1O	< 50%
CC(CCc1ccccc1)NC(=O)c1cncc(-c2cccs2)c1 (centres unmarked)	< 50%
CN(Cc1ccccc1)C(=O)c1cncc(-c2ccc(O)cc2)c1	< 50%
COc1cccc(-c2cncc(C(=O)NCc3ccco3)c2)c1	< 50%

Task: I'd like to know its inhibition at 10 µM. The molecule in question is `COc1cccc([C@H](C)NC(=O)c2cncc(-c3ccc(O)c(OC)c3)c2)c1`
Result: < 50%

Task: // query: `O=C(NCc1ccc(F)cc1)c1cncc(-c2cccnc2)c1`
Result: < 50%

Task: // query: `COc1cc(-c2cncc(C(=O)NC(C)C)c2)c(Cl)c(OC)c1OC`
Result: < 50%

Task: // query: `COc1cccc(-c2cncc(C(=O)Nc3ccc(F)cc3C)c2)c1`
Result: ≥ 50%

Task: // query: `C[C@@H](NC(=O)c1cncc(-c2cccs2)c1)c1ccccc1`
Result: < 50%

Task: // query: `Cc1cc(F)ccc1NC(=O)c1cncc(-c2cc(C)c(O)c(C)c2)c1`
Result: ≥ 50%

Task: // query: `COc1cc(CNC(=O)c2cncc(-c3cccc(OC)c3)c2)cc(OC)c1`
Result: < 50%

Task: // query: `COc1cc(-c2cncc(C(=O)OC(C)(C)C)c2)ccc1O`
Result: < 50%

Task: // query: `COc1cccc(-c2cncc(C(=O)NCc3cccnc3)c2)c1`
Result: < 50%

Task: // query: `O=C(NCc1cccc(F)c1)c1cncc(-c2ccc3c(c2)OCO3)c1`
Result: < 50%

* * *

- TARGET: Zap70 (Homo sapiens)
- METHOD NOTES: Zap70 kinase assay (ELISA or Alphascreen)
- Assay type: biochemical
- SETTINGS: read-out: Zap70 inhibition of enzyme activity
Below: a set of entries, each annotated with reported inhibition at 10 µM.

O=C(NCc1cccc(F)c1)c1cncc(-c2ccc3c(c2)OCO3)c1	< 50%
COc1cccc(-c2cncc(C(=O)NCc3ccc(C)cc3)c2)c1	≥ 50%
COc1ccc(NC(=O)c2cncc(-c3cc(OC)c(OC)c(OC)c3)c2)c(OC)c1	< 50%
O=C(NCCc1ccccc1)c1cncc(-c2ccc(O)cc2)c1	< 50%
COc1cccc(-c2cncc(C(=O)N[C@H](C)c3ccccc3)c2)c1	< 50%

Task: I'd like to know its inhibition at 10 µM. The molecule in question is `COc1ccc(CNC(=O)c2cncc(-c3cccc(OC)c3)c2)cc1`
Result: ≥ 50%

Task: // query: `COc1ccc(CNC(=O)c2cncc(-c3cccnc3)c2)cc1`
Result: < 50%

Task: // query: `O=C(NCCc1ccccc1)c1cncc(-c2cccs2)c1`
Result: < 50%

Task: // query: `O=C(NCCc1ccccc1)c1cncc(-c2ccc3c(c2)OCO3)c1`
Result: < 50%

Task: // query: `C[C@@H](NC(=O)c1cncc(-c2ccc(F)cc2)c1)c1ccccc1`
Result: < 50%

Task: // query: `Cc1ccc(F)cc1NC(=O)c1cncc(-c2cc(C)c(O)c(C)c2)c1`
Result: < 50%
